test description: yeast display, Sf9 membrane polyspecificity reagent, FACS + sequencing; frameworks hold sequencing errors
experimental endpoint: polyreactivity (PSR sort gate)

QDQLVESRGGLVQAGGSLRLSCAASGRIFLTNAMGWDRKAPGKERELVAAITSGGSTYYADSVKGRFTISRDNAKNTVFLQMNSVKPEDTAVYYCNADTDRYCPYEYDYWGQGTQVTVSS ... low polyreactivity
QVQLVESGGGLVQAGGSLRLSCAASGSTFNTYDMGWYRQAPGKERELVAAISFSDASTYYADSVKGRFTISRDNAKYTVYLQMNSLKPEDTAVYYCAADTRRITTVTTGEYGYWGQGTQVTVSS ... low polyreactivity
QVQLVESGGGLVQAGGSLRLSCAASGSTLDIYAMGWYRQAPGKERELVATINSTGGSTYYADSVKGRFTISRDNAKNTVYLQMNSLNPEDTAVYYCAADFGLFGPTTGYIRPYDYWGQGTQVTVSS ... low polyreactivity
